- system tested: human D2R/β-arrestin (Homo sapiens (Human), UniProt P14416)
- Sequence (P14416 whole entry): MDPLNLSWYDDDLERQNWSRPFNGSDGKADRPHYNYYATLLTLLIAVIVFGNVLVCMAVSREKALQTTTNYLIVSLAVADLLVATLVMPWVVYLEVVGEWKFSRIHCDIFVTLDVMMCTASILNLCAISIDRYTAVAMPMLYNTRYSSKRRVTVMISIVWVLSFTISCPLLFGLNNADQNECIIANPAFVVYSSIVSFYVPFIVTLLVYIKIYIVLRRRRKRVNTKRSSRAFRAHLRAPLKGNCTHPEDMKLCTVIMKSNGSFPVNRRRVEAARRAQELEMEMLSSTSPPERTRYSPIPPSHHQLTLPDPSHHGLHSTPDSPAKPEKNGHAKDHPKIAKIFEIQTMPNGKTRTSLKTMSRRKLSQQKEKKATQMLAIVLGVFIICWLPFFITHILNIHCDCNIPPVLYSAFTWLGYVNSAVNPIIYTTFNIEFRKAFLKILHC
- test protocol: cell-based
- condition context: cAMP Antagonist, CHO-K1 cells expressing human D2R/β-arrestin; antagonist mode, 2.5 μM forskolin and 2.7 nM quinpirole
readout kind: IC50

Below, 3 compounds whose answers are already recorded.
INSERT INTO measurements (structure_as_smiles, assay_value) VALUES
  ('COc1ccc(F)cc1OCCN1CCC(C)(Oc2ccc(Cl)cc2)CC1', '1 to 10 µM'),
  ('CC1(Oc2ccccc2)CCN(CCOc2ccccc2C#N)CC1', '> 30 µM'),
  ('CC(C)c1ccccc1OCCN1CCC(C)(Oc2ccccc2)CC1', '0.1 to 1 µM');

Q: Consider the compound CC1(C(=O)N2CCCC2)CCN(C[C@H]2COc3ccccc3O2)CC1 and give its measured IC50.
Result: > 30 µM

Q: Fill in: IC50 of C#CC1(Oc2ccc(Cl)cc2)CCN(CCOc2ccccc2C(F)(F)F)CC1 is ___
Result: > 30 µM

====

In this section, each of the compounds is paired with its reported EC50.
- system tested: human D2R/β-arrestin (Homo sapiens (Human), UniProt P14416)
- test protocol: β-arrestin agonist assay (PathHunter)
- Format: cell-based
- condition context: CHO-K1 cells expressing human D2R/β-arrestin; agonist mode

The following compounds have reported results that may help.
INSERT INTO measurements (compound, readout_kind, assay_value) VALUES
  ('COc1ccc(F)cc1OCCN1CCC(C)(Oc2ccc(Cl)cc2)CC1', 'EC50', '> 30 µM'),
  ('CC1(Oc2ccc(Cl)cc2)CCN(CCOc2ccc3ncccc3c2)C1 (stereo not shown)', 'EC50', '> 30 µM'),
  ('CC1(Oc2ccccc2)CCN(CCOc2cc(F)ccc2C(F)(F)F)CC1', 'EC50', '> 30 µM'),
  ('CC1(Oc2ccccc2)CCN(CCOc2ccccc2C(F)(F)F)CC1', 'EC50', '> 30 µM'),
  ('CC1(Oc2ccc(Cl)cc2)CCN(CCOc2ccc(C(F)(F)F)nc2)C1 (stereo not shown)', 'EC50', '1 to 10 µM'),
  ('CC1(Oc2cccc(F)c2)CCN(CCOc2ccccc2)C1 (stereo not shown)', 'EC50', '> 30 µM'),
  ('CC1(O)CCN(CCOc2ccccc2)CC1', 'EC50', '1 to 10 µM'),
  ('CC1(Oc2ccccc2)CCN(CCOc2cccc3[nH]ccc23)CC1', 'EC50', '0.1 to 1 µM');

Q: Using the record for CC1(Oc2ccc(Cl)cc2)CCN(CCOc2ccc3cccnc3c2)C1 (stereo not shown) , report its EC50.
Result: < 0.1 µM

Q: Item CC(=O)NC1(C)CCN(C[C@H]2COc3ccccc3O2)CC1 has what recorded EC50?
Result: 0.1 to 1 µM

Q: For CC(C)C1(O)CCN(CCOc2ccccc2C(F)(F)F)CC1 , what is its reported EC50?
Result: > 30 µM

====

- system tested: human D2R/β-arrestin (Homo sapiens (Human), UniProt P14416)
- test protocol: Gi/cAMP agonist assay (Lance Ultra cAMP, forskolin)
- Type: cell-based
- condition context: CHO-K1 cells expressing human D2R/β-arrestin; agonist mode, 2.5 μM forskolin
pEC50: −log10 of the molar value.
Listing of entries alongside the reported pEC50.

INSERT INTO results (molecule, system_tested, readout_kind, assay_value) VALUES
  ('CC1(Oc2ccc(Cl)cc2)CCN(CCOc2cnccc2C(F)(F)F)CC1 [Compound 128]', 'human D2R/β-arrestin (Homo sapiens (Human), UniProt P14416)', 'pEC50', '5.00 to 6.00'),
  ('CC1(Oc2cccc(C(F)(F)F)c2)CCCN(CCOc2cc(F)ccc2F)C1 (stereo not shown) [Example 62]', 'human D2R/β-arrestin (Homo sapiens (Human), UniProt P14416)', 'pEC50', '< 4.52'),
  ('CC1(Oc2ccc(Cl)cc2)CCN(CCOc2ccc(C(F)(F)F)cn2)CC1 [Compound 148]', 'human D2R/β-arrestin (Homo sapiens (Human), UniProt P14416)', 'pEC50', '4.52 to 5.00'),
  ('CC1(O)CCN(CCOc2ccc(C(F)(F)F)cc2)CC1 [Compound 132]', 'human D2R/β-arrestin (Homo sapiens (Human), UniProt P14416)', 'pEC50', '< 4.52'),
  ('CC1(Oc2ccc(Cl)cc2)CCN(CCOC2CCCCC2)C1 (stereo not shown) [Compound 21]', 'human D2R/β-arrestin (Homo sapiens (Human), UniProt P14416)', 'pEC50', '< 4.52');

Q: Query the reported pEC50 for human D2R/β-arrestin (Homo sapiens (Human), UniProt P14416); item: CC1(Oc2ccc(Cl)cc2)CCN(CCOc2ccc3ncsc3c2)C1 (stereo not shown) [Compound 18]
Result: 6.00 to 7.00

Q: Find pEC50 (human D2R/β-arrestin (Homo sapiens (Human), UniProt P14416)) for the entry CC1(Oc2ccccc2)CCN(CCOc2cccc(C(F)(F)F)c2)CC1 [Example 67]
Result: > 7.00

Q: Give the reported pEC50 for CC1(Oc2ccccc2)CCN(CCOc2cccc3[nH]ccc23)CC1 [Compound 175] (system: human D2R/β-arrestin (Homo sapiens (Human), UniProt P14416)).
Result: > 7.00

Q: # query: pEC50 | item COc1cc2c(cc1O)C1Cc3ccc(O)c(OC)c3CN1CC2 (racemic) [D,L-Stepholidine, reference compound] | system: human D2R/β-arrestin (Homo sapiens (Human), UniProt P14416)
Result: < 4.52

Q: GET /values?readout=pEC50&system=human D2R/β-arrestin (Homo sapiens (Human), UniProt P14416)&item= CC1(Oc2ccc(Cl)cc2)CCN(CCNc2ccccc2C(F)(F)F)CC1 [Compound 168]
Result: < 4.52

Q: What measured pEC50 is associated with CC1(Oc2ccc(Cl)cc2)CCN(CCOc2ccc3cccc(C(F)(F)F)c3n2)CC1 [Compound 171] on human D2R/β-arrestin (Homo sapiens (Human), UniProt P14416)?
Result: 6.00 to 7.00

Q: Form entry - test system: human D2R/β-arrestin (Homo sapiens (Human), UniProt P14416); read-out: pEC50; molecule: CC1(Oc2cccc(Cl)c2Cl)CCN(CCOc2ccccc2)C1 (stereo not shown) [Example 49]
Result: 6.00 to 7.00

Q: Param readout = pEC50; param system = human D2R/β-arrestin (Homo sapiens (Human), UniProt P14416); param query = CC1(Oc2ccc(Cl)cc2)CCN(CCOc2cccc(C(F)(F)F)c2)C1 (stereo not shown) [Compound 13] ; response: value
Result: < 4.52

Q: Item: CC1(Oc2ccc(Cl)cc2)CCN(CCCCOc2ccccc2F)C1 (stereo not shown) [Compound 27] Test system: human D2R/β-arrestin (Homo sapiens (Human), UniProt P14416) Read-out: pEC50 Value: ?
Result: < 4.52

Q: Return pEC50 measured with human D2R/β-arrestin (Homo sapiens (Human), UniProt P14416) given this molecule: FC(F)(F)c1ccccc1OCCN1CCC2(CCCN2c2ccc(Cl)cc2)CC1 [Compound 135]
Result: < 4.52

Q: Under human D2R/β-arrestin (Homo sapiens (Human), UniProt P14416): pEC50 value of CNC(=O)C1(C)CCN(CC2COc3ccccc3O2)CC1 (stereo not shown) [Compound 202] ?
Result: > 7.00

Q: Under human D2R/β-arrestin (Homo sapiens (Human), UniProt P14416): pEC50 value of CC1(O)CCN(CCOc2ccccc2)CC1 [Compound 130] ?
Result: 6.00 to 7.00

Q: Find pEC50 (human D2R/β-arrestin (Homo sapiens (Human), UniProt P14416)) for the entry COc1ccc(OCCN2CCC(C)(Oc3ccc(Cl)cc3)C2)cc1 (stereo not shown) [Compound 20]
Result: > 7.00

Q: Any idea what pEC50 came out for CC1(Oc2ccccc2Cl)CCN(CCOc2ccccc2C(F)(F)F)CC1 [Example 104] on human D2R/β-arrestin (Homo sapiens (Human), UniProt P14416)?
Result: 4.52 to 5.00

Q: What value of pEC50 on human D2R/β-arrestin (Homo sapiens (Human), UniProt P14416) does CC1(Oc2ccc(Cl)cc2)CCN(CCn2c(=O)ccc3cccc(C(F)(F)F)c32)CC1 [Compound 172] have?
Result: 5.00 to 6.00

====

- system tested: human D2R/β-arrestin (Homo sapiens (Human), UniProt P14416)
- test protocol: cell-based
- condition context: β-arrestin Antagonist, CHO-K1 cells expressing human D2R/β-arrestin; antagonist mode, quinpirole 130 nM
# IC50 values compiled below

Below, 5 compounds whose answers are already recorded.
INSERT INTO assay_data (compound, readout_kind, assay_value) VALUES
  ('CC(C)Oc1ccc(F)cc1OCCN1CCC(C)(Oc2ccc(Cl)cc2)CC1', 'IC50', '1 to 10 µM'),
  ('CC1(Oc2ccc(Cl)cc2)CCN(CCOc2ccc3cccnc3c2)C1 (stereo not drawn)', 'IC50', '> 30 µM'),
  ('CC1(Oc2ccccc2)CCN(CCC(=O)c2ccccc2C(F)(F)F)CC1', 'IC50', '10 to 30 µM'),
  ('CC1(Oc2ccc(Cl)cc2)CCN(CCOc2ccc(C(C)(C)O)cc2)CC1', 'IC50', '1 to 10 µM'),
  ('CC1(Oc2ccc(Cl)cc2)CCN(CCCCOc2ccccc2)C1 (stereo not drawn)', 'IC50', '1 to 10 µM');

Q: Can you share its IC50? I mean this compound: COc1ccccc1OCCN1CCC(C)(Oc2ccc(Cl)cc2)C1 (stereo not drawn)
Result: 0.1 to 1 µM

Q: # get_value(readout='IC50', item= CC1(Oc2ccc(Cl)cc2)CCN(CCOc2ccc3ccncc3c2)C1 (stereo not drawn) )
Result: > 30 µM

Q: Would you mind telling me what IC50 value was observed for CC1(Oc2ccccc2)CCN(CCOc2cccc3[nH]ccc23)CC1 ?
Result: < 0.1 µM

Q: Dear colleague, I am looking for the recorded IC50 of the following compound: CC1(Oc2ccc(Cl)cc2)CCN(CCOc2ccccc2)C1 (stereo not drawn)
Result: 1 to 10 µM

Value source: patent US11498896B2
